# Tested on: HepG2
# assay-overview: cytotoxicity call (relative viability < 0.9)
# test-settings: 10 µM
Hit rate of the full screen: of about 39,000 compounds, about 3,300 (8.5%) were called active. This is one part of a sample in which actives are shown more often than they occur.
// allowed return values: active, inactive

[ask] Which outcome was entered for the molecule C[C@H]1CN([C@@H](C)CO)C(=O)c2cccc(NC(=O)C3CC3)c2O[C@@H]1CN(C)S(=O)(=O)c1ccc(F)cc1 in this test?
[reply] inactive

[ask] Identify the outcome logged in this assay for the molecule shown: CCC(=O)N(C)C[C@@H]1Oc2ncc(C#C[C@@H](C)O)cc2C(=O)N([C@H](C)CO)C[C@@H]1C
[reply] inactive

[ask] Outcome? Cc1ccc(S(=O)(=O)Nc2ccc3c(c2)C(=O)N([C@H](C)CO)C[C@H](C)[C@@H](CN(C)CC2CCCCC2)OCCCC[C@@H](C)O3)cc1
[reply] inactive

[ask] Could you kindly confirm the outcome this assay logged for C[C@H](CO)N1C[C@H](C)[C@H](CN(C)Cc2ccc3c(c2)OCO3)Oc2ccc(NC(=O)Nc3cccc4ccccc34)cc2C1=O ?
[reply] inactive

[ask] Record request — test call for C[C@@H]1CCCCO[C@@H](CN(C)C(=O)Nc2ccccc2)[C@@H](C)CN([C@@H](C)CO)C(=O)c2cc(NC(=O)Nc3ccccc3)ccc2O1
[reply] inactive

[ask] Would you mind telling me which call this test gave CN(C)CC(=O)N1CC(=O)N2[C@H](CO)[C@H](c3ccc(C#Cc4cccnc4)cc3)[C@@H]2C1 ?
[reply] inactive

[ask] State the result this test recorded for CCCCC1C(=O)N(c2ccccc2)N(c2ccc(O)cc2)C1=O (stereo not given) .
[reply] active

[ask] Can you look up the reported call for C[C@H]1CN([C@@H](C)CO)C(=O)c2cc(C#CC3(O)CCCC3)cnc2O[C@@H]1CN(C)C(=O)Nc1ccc2c(c1)OCO2 for me?
[reply] inactive

[ask] Tell me the recorded outcome of this test for O=C(C[C@@H]1CC[C@@H]2[C@H](COC[C@H](O)CN2S(=O)(=O)c2cccc(Cl)c2)O1)NCc1ccc2c(c1)OCO2 .
[reply] inactive

[ask] Could you kindly confirm the outcome this assay logged for Cc1noc(C)c1S(=O)(=O)Nc1ccc2c(c1)C(=O)N([C@@H](C)CO)C[C@@H](C)[C@H](CN(C)S(=O)(=O)c1cn(C)cn1)OCCCC[C@@H](C)O2 ?
[reply] inactive

[ask] // param item: CO[C@@H]1CN(C)C(=O)c2cc(NS(C)(=O)=O)ccc2OC[C@H](C)N(C(=O)CN(C)C)C[C@@H]1C ; yields the recorded call
[reply] inactive

[ask] Assay outcome for C[C@@H]1CCCCO[C@@H](CN(C)Cc2ccc(C(=O)O)cc2)[C@H](C)CN([C@H](C)CO)C(=O)c2cc(NC(=O)Nc3ccccc3)ccc2O1 : what was it?
[reply] inactive

[ask] Which outcome did this test record for the molecule CC1(C)OC2CC3C4CC(F)C5=CC(=O)C=CC5(C)C4(F)C(O)CC3(C)C2(C(=O)CO)O1 (stereo not given) ?
[reply] inactive

[ask] Name the outcome recorded for COc1ccc(S(=O)(=O)N(C)C[C@@H]2Oc3cc(C#CC4CC4)ccc3S(=O)(=O)N([C@H](C)CO)C[C@@H]2C)cc1 in the assay.
[reply] inactive

[ask] Test call, this molecule: Cc1noc(C)c1NC(=O)Nc1ccc2c(c1)C(=O)N([C@H](C)CO)C[C@H](C)[C@@H](CN(C)S(=O)(=O)c1ccccc1)OCCCC[C@@H](C)O2
[reply] inactive

Value source: the antibiotic and cytotoxicity screens of Wong et al. (2023)
